system: BT-549 breast; assay: NCI-60 one-dose screen, 48 h (100 = growth as untreated, 0 = no growth, -100 = all killed); details: 10 µM unless noted
Compounds without any hit were thinned out: in the full panel of roughly 83,000, 20% have a hit.
Threshold rule: growth greater than or equal to 60% is condition met; below that, condition not met.

# compound, class
records = [
    ("CS(=O)(=O)c1ccc(-c2nn(-c3ccccc3)cc2/C=N/NC(=O)c2ccncc2)cc1", "condition met"),
    ("CC(C)c1nn(-c2ccccc2)c(N2CCCCC2)c1/C=N/NC(N)=S", "condition met"),
    ("N#C/C(=C\\c1ccc2ccccc2c1)C(=O)Nc1sc2c(c1C#N)CCC2", "condition met"),
    ("C=C1C(=O)O[C@@H]2C[C@@H](C)[C@H](OC)CC(=O)[C@](C)(OC(C)=O)C[C@H](OC(=O)/C(C)=C\\C)[C@@H]12", "condition met"),
    ("COc1ccc(OC)c([C@H]2c3[nH]c4ccccc4c3C[C@H]3C(=O)N(CCCCCCC(=O)NO)CC(=O)N23)c1", "condition met"),
    ("CC(C)=CCC[C@](C)(O)[C@H]1CC[C@]2(C)[C@@H]1CC[C@@H]1[C@@]3(C)CCC(NC(=O)c4ccccc4C(=O)O)C(C)(C)[C@@H]3CC[C@]12C (stereo partly specified)", "condition met"),
    ("Nc1n[nH]c2cccc(C#Cc3cccc(NC(=O)c4cccc(OC(F)(F)F)c4)c3)c12", "condition met"),
    ("NS(=O)(=O)c1ccc(-n2cc(CC=O)nn2)cc1", "condition met"),
    ("COc1ccc(-c2nc(SCC(C)C)nc(N/N=C\\c3cccc([N+](=O)[O-])c3)c2C#N)cc1", "condition met"),
    ("O=C1/C(=C/c2ccccc2[N+](=O)[O-])Oc2ccc(O)cc21", "condition not met"),
    ("CC(C)=CCc1c(O)c(CC=C(C)C)c2c(c1O)C(=O)C1=C[C@@H]3C[C@H]4C(C)(C)O[C@@](C/C=C(\\C)C(=O)O)(C3=O)[C@@]14O2", "condition not met"),
    ("COc1ccc(/C=N/Nc2nc(N/N=C/c3ccc(OC)cc3O)nc(N3CCOCC3)n2)c(O)c1", "condition met"),
    ("Cc1[nH]nc2ccc(-c3nc4cnc(N5CCN(C)CC5)cn4c3Nc3ccc(F)cc3Br)cc12", "condition met"),
    ("COc1ccc2c(c1)c(-c1nnc(N)nc1-c1cn(C)c3ccccc13)cn2C", "condition met"),
    ("Nc1nc(-c2cccc([N+](=O)[O-])c2)c(N=Nc2ccccc2[N+](=O)[O-])s1", "condition not met"),
    ("CCN1CCN(c2cc(C(=O)Nc3nc4ccc(Oc5ccnc(C(=O)NC)c5)cc4s3)cc(C(F)(F)F)c2)CC1", "condition met"),
    ("Cc1cc(F)cc(NS(=O)(=O)c2ccc(-c3cnc(C4CC4)o3)cc2)c1", "condition not met"),
    ("C=CCn1c(SCC(=O)Nc2cccc(C(=O)/C=C/c3ccccc3Cl)c2)nc2ccccc2c1=O", "condition met"),
    ("CCN(CC)CCCC(C)NCC(=O)NC(c1ccc2c(c1)OCO2)c1cc(Cl)c2cccnc2c1O (stereo unspecified)", "condition met"),
    ("COCCC[C@H]1O[C@@](O)([C@H](C)[C@@H]2CC(OC)C(O)/C=C(C)/C=C(C)/C=C(\\C)C(OC3O[C@@H](C)[C@H](O)C(O)[C@@H]3O)C(C)/C=C(C)/C=C(OC)/C=C(\\C)C(=O)O2)C(OC)C(O)[C@]1(C)O[C@H]1C[C@@H](O)[C@H](O[C@H]2C[C@](C)(O)[C@H](O)C(C)O2)C(C)O1 (stereo partly specified)", "condition not met"),
    ("N=c1c2cc(-c3ccccc3)oc2ncn1/N=C/c1ccccc1", "condition met"),
    ("Cc1ccc(-c2cc(-c3ccc(N(C)C)cc3)n3c(n2)nc2ccccc23)cc1", "condition met"),
    ("Cc1cc(-c2ccc3nc(N)sc3c2)nc2ccc3[nH]ncc3c12", "condition not met"),
    ("COc1cc(OC)c(S(N)(=O)=O)cc1C(=O)/C=C/c1ccccc1", "condition not met"),
    ("C#C[C@]1(O)CC[C@H]2[C@@H]3CC=C4c5sc(Nc6ccncc6)nc5CC[C@]4(C)[C@H]3CC[C@@]21C", "condition not met"),
]
